- System: SARS-CoV-2 USA-WA1/2020
- procedure-details: microbe, parasite or virus in culture
- Type: cell-based
- measurement-context: Severe acute respiratory syndrome coronavirus 2, Vero C1008, 48 h, read-out: SARS-CoV-2 EC50
test-readout: EC50 (µM)
// units = µM; emit number, no label

{"columns": ["molecule", "EC50 [µM]"],
 "data": [
  ["Fc1nc(N2CCNCC2)c(F)c(Sc2ccc(Cl)cc2)c1F", 6.24]
]}

# input for lookup
Looking up CCC(CC)COC(=O)[C@H](C)N[P@](=O)(OC[C@H]1O[C@@](C#N)(c2ccc3c(N)ncnn23)[C@H](O)[C@@H]1O)Oc1ccccc1 [Remdesivir, reference compound] , I found its EC50 recorded as 0.428
